Target: T1, recombinant HLA-DQ8/gliadin peptide (human)
T1 chain 1: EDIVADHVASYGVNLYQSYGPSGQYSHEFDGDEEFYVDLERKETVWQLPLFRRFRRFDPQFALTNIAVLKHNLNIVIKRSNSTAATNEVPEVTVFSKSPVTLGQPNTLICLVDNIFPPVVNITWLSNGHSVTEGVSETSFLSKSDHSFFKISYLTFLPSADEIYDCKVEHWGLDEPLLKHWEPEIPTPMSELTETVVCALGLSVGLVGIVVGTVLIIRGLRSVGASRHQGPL
T1 chain 2: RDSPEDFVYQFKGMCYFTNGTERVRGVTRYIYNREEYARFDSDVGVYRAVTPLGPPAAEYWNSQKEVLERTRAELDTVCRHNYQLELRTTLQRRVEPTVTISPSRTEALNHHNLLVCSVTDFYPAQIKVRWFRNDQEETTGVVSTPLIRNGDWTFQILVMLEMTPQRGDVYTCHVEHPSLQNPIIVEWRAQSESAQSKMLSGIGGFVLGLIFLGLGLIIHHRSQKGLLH
Test: SPR Biacore T200, 37 C, pH 7.4; antibody captured by anti-human Fc, pMHC injected; 1:1 model
Result Type: pKd
The read-out pKd is expressed as -log10 of concentration in moles per litre.

>  <Binder>
DQN0139 (antibody, human IgG1, kappa, V domains shown, also called DQN0139bb) VH: QSLEESGGRLVTPGTALTLTCTVSGFSLSSYAMGWVRQAPGKGLEYIGWTSPGDSAYYASWTKGRFTISRTSTTVELKITSPTTEDTATYFCARDAAYIGHWAFNLWGPGTLVTVSS VL: DVVMTQTPASVSAPVGGTVTINCQASESIYSNLAWYQQKPGQPPKLLIYGASTLESGVPSRVKGSGYGTQFTLTISDLECADAATYYCQQYYGSSSTAFTFGGGTKVEIKR

>  <Meas Value>
7.95

$$$$

// below: pKd requested for another binder
query: Would you mind telling me what pKd value was observed for DQN0092 (antibody, human IgG1, kappa, V domains shown, Rabbit variable regions with F1332m and hkOMC constant regions; also called DQN0092hh) VH: QSVEESGGRLVTPGTPLTLTCTVSGFSLSSYYISWVRQAPGKGLEWIGIIYTDGVTDYPNWAKGRFTISKTSTTVDLKITSPTTEDTATYFCARDAASVYGCGYFDLWGPGTLVTVSS VL: TFKLTQTPASVEAAVGGTVTIKCQASESNGNALAWYQQKPGQPPKLLIYRAFTLASGVPSRLKGSGSGTQFALTISDLECADAATYYCQTYYGSNTDFNAFGGGTKVEIKR ?
result: 8.14
